// provenance: the supplement of paper PMC12667976

B1: library; numbered along this chain (parent)
chain: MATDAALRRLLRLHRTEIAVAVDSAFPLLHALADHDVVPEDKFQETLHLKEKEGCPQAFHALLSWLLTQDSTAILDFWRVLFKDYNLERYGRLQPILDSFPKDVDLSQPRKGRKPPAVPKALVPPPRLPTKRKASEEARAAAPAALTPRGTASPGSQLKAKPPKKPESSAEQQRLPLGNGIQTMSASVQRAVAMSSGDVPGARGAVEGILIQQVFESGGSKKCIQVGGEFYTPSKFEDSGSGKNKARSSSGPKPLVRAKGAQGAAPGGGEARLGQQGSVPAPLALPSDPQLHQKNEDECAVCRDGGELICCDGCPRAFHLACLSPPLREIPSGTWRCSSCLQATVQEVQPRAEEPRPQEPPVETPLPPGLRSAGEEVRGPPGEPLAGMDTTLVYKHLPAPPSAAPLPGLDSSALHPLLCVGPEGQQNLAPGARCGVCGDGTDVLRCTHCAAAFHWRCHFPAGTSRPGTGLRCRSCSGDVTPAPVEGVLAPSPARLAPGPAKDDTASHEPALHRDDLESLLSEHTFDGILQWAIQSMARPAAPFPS

variants of: B1; assay: AIRE transcriptional activation functional score (insulin promoter-GFP; nonsense median 0, synonymous median 1) (normalised score); higher = higher AIRE activity (more reporter activation); conditions: with insulin promoter-GFP reporter in HEK293
Threshold check on AIRE transcriptional activation functional score: at or above 1 gives fulfilled, strictly below gives not fulfilled.

Below, 4 variants whose answers are already recorded.
D389K    not fulfilled
E171I    fulfilled
G269F    fulfilled
A541Q    fulfilled

Check this variant for AIRE transcriptional activation functional score at or above 1: P380Q
fulfilled

Check this variant for AIRE transcriptional activation functional score at or above 1: R371I
not fulfilled

Check this variant for AIRE transcriptional activation functional score at or above 1: P481G
not fulfilled

Check this variant for AIRE transcriptional activation functional score at or above 1: F77L
not fulfilled

Check this variant for AIRE transcriptional activation functional score at or above 1: A152Y
fulfilled

Check this variant for AIRE transcriptional activation functional score at or above 1: D478R
not fulfilled
